tested-on: Epidermal growth factor receptor (Homo sapiens) (UniProt P00533)
Sequence (P00533 whole entry): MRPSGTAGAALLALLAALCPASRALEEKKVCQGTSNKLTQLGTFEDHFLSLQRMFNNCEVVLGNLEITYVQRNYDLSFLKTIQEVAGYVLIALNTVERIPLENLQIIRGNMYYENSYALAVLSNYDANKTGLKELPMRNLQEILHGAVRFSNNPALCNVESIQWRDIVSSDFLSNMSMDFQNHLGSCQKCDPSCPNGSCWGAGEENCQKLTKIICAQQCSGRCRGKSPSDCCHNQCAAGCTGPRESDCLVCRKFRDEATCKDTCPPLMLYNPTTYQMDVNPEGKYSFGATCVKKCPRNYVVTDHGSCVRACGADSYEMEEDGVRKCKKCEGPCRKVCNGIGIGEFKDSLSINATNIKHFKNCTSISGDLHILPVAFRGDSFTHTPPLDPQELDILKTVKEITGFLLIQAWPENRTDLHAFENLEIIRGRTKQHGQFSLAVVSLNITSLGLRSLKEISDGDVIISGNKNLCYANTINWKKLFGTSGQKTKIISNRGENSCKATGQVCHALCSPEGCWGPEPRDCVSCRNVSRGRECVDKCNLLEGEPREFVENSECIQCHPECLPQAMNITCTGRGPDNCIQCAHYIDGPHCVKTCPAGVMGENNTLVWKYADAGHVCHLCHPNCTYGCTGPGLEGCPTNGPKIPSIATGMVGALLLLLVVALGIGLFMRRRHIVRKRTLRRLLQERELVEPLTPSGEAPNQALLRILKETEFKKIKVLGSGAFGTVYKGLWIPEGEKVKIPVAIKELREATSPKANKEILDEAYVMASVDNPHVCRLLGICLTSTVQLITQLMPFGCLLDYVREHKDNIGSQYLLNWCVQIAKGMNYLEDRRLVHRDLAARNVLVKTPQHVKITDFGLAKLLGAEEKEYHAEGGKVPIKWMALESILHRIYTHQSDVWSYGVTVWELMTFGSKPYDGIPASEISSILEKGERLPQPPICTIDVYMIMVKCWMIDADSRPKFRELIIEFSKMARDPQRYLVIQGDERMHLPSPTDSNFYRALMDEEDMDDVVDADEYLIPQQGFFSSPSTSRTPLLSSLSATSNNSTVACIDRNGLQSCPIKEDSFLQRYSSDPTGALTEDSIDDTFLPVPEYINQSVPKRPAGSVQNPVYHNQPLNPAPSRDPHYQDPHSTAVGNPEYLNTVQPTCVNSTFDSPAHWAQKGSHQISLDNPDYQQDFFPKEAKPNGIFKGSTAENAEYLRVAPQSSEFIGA
assay-conditions: at 0.1 µM
Description: GSK_PKIS: EGFR mean inhibition at 0.1 uM [Nanosyn]
recorded-endpoint: inhibition

The cases that follow already have their inhibition on record.
# given-smiles, inhibition
records = [
    ("COc1cc(C)c(N(C)C(=O)CN(C)C)cc1Nc1nc(Nc2cccc(F)c2C(N)=O)c2cc[nH]c2n1", "-4.88%"),
    ("COc1ccc(C2=C(N3CCc4ccccc43)C(=O)NC2=O)cc1", "1.18%"),
]

// switching to the query molecule
(Q) Query the reported inhibition for Epidermal growth factor receptor (Homo sapiens) (UniProt P00533); item: C#Cc1cccc(Nc2ncnc3ccc(OCCCCNCCS(C)(=O)=O)cc23)c1
(A) 75.9%

###

tested-on: Serine/threonine-protein kinase 26 (Homo sapiens) (UniProt Q9P289)
Sequence (Q9P289 2-416 limits assumed): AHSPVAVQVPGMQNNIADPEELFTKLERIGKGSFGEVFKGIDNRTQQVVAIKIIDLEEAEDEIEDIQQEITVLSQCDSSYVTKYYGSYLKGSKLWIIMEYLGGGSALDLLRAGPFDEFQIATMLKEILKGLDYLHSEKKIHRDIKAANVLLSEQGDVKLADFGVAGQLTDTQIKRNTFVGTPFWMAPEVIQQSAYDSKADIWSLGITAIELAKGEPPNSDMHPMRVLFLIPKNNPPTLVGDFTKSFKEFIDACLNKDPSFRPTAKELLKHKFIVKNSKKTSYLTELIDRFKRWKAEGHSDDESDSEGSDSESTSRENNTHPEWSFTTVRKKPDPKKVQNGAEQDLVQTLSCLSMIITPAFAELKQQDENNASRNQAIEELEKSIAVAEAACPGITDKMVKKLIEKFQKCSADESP
assay-conditions: at 0.1 µM
Description: GSK_PKIS: MST4 mean inhibition at 0.1 uM [Nanosyn]
Listed compounds paired with reported inhibition
The reply should be a number in %, with the unit left off.

# given-smiles, measured
measured = [
    ("O=C1Nc2ccccc2/C1=C/Nc1ccc(-n2cncn2)cc1", -0.63),
    ("O=C1Nc2ccc(I)cc2C1=Cc1cc(Br)c(O)c(Br)c1", 0.13),
    ("CNC(=O)c1cncc(/C=C/c2c(C)cccc2C)c1", 0.91),
    ("NCc1ccc(-n2c(-c3nonc3N)nc3cnccc32)cc1", 0.95),
    ("Cc1nnc(-c2ccc(C)c(-c3ccc(C(=O)NCc4ccc(Cl)cc4)cc3)c2)o1", -1.19),
    ("O=C(Nc1ccc(Oc2ccc3[nH]c(NC(=O)c4ccccc4)nc3c2)cc1)Nc1cc(C(F)(F)F)ccc1F", 0.36),
    ("NC(=O)c1ccc(Oc2nccc(-c3c(-c4ccc(F)cc4)ncn3C3CCNCC3)n2)cc1", -1.23),
    ("NS(=O)(=O)c1ccc(N/N=C2\\C(=O)Nc3ccc(-c4cnco4)cc32)cc1", 0.61),
    ("O=C(Nc1n[nH]c2cc(-c3ccccc3)ccc12)C1CC1", -2.61),
    ("O=C(NCC1CC1)c1ccc(-c2cccc(C(=O)NC3CC3)c2)cc1", -2.14),
]

(Q) Return reported inhibition; argument: CCc1ccc(Oc2nccc(-c3c(-c4ccc(F)cc4)ncn3C3CCNCC3)n2)cc1
(A) 0.4

(Q) Entry under review: N#Cc1ccc(Oc2nccc(-c3c(-c4ccc(F)cc4)ncn3C3CCNCC3)n2)cc1 . Reported inhibition?
(A) -1.67

(Q) Reported inhibition, compound CN(C)CCCNc1nccc(-c2c(-c3ccc(F)cc3)nn3cc(C(F)(F)F)ccc23)n1 : ____
(A) -0.11

(Q) Which inhibition value belongs to c1ccc(Oc2ccc(Nc3ncc(-c4ccccc4)o3)cc2)cc1 ?
(A) -1.17

(Q) Item under review: C#Cc1cccc(Nc2ncnc3ccc(OCCCCNCCS(C)(=O)=O)cc23)c1 . Reported inhibition?
(A) -2.14

(Q) May I ask what inhibition has been recorded for COc1cc2ncn(-c3cc(OCc4ccccc4C(F)(F)F)c(C(C)=O)s3)c2cc1OC ?
(A) -0.47

(Q) Quick check: inhibition of COc1ccc(C2=C(N3CCc4ccccc43)C(=O)NC2=O)cc1 ?
(A) -0.57

(Q) Requested field: inhibition. Item: NS(=O)(=O)c1ccc(Nc2cc(-c3ccc(O)c(F)c3)n[nH]2)cc1
(A) 0.95

(Q) Need inhibition, item CN(c1ccc(NC(=O)Nc2c(Cl)cccc2Cl)cc1)c1ccnc(Nc2cccc(CS(C)(=O)=O)c2)n1
(A) 0.39

(Q) Fill in the blank: the reported inhibition of CCc1nccc2c1nc(-c1nonc1N)n2CC is ____.
(A) -1.4

(Q) So what does the record say about inhibition for COc1cc(Nc2ncc3c(C)nc(-c4cccc(Oc5ccccc5)c4)n3n2)cc(OC)c1OC ?
(A) -0.33

(Q) What measured inhibition goes with Fc1ccc(-c2ncn(CCCN3CCOCC3)c2-c2ccncc2)cc1 ?
(A) 0.94

(Q) If you can, please state the reported inhibition value of NC(=O)c1cc(-c2ccc(F)cc2)cc(-c2ccncc2)c1N .
(A) -2.72

###

Form field: inhibition (one value per entry).
tested-on: Insulin receptor-related protein (Homo sapiens) (UniProt P14616)
Sequence (P14616 27-742 limits assumed): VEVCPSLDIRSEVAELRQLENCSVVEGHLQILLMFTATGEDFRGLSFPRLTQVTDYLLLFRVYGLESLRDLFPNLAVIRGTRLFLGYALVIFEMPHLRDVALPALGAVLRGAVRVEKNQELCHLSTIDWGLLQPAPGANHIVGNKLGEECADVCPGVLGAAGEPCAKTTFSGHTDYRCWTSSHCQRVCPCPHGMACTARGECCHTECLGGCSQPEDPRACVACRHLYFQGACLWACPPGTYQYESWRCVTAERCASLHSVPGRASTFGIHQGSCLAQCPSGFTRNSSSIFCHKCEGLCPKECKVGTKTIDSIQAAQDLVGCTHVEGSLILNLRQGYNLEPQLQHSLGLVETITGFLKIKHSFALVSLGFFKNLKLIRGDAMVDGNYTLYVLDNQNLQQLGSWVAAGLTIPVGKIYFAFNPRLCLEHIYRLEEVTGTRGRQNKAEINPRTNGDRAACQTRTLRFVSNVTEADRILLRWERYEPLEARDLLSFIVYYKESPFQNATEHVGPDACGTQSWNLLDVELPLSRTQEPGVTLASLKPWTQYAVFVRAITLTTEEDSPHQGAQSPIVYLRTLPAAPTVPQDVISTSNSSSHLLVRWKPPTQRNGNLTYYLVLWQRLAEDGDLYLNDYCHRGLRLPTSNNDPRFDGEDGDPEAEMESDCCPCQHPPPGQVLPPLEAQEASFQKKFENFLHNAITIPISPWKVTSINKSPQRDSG
Sequence (P14616 747-1297 limits assumed): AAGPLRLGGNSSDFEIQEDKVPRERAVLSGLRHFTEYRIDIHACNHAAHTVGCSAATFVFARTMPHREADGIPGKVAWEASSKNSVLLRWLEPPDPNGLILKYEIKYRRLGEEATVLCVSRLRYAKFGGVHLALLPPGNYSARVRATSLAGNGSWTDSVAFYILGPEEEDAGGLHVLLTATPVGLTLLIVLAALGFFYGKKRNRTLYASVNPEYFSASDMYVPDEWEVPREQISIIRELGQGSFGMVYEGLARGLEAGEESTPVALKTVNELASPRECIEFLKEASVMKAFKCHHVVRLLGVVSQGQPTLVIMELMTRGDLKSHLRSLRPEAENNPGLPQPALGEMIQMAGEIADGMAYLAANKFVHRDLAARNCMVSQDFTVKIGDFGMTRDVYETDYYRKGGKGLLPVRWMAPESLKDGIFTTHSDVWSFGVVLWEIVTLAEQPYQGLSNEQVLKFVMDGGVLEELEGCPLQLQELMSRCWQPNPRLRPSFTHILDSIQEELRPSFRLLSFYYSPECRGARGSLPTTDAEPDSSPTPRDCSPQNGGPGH
assay-conditions: at 0.1 µM
Expressed in %, but write only the number.

Use these answered entries as a reference point.
# given-smiles, unit-text, inhibition
rows = [
    ("CS(=O)(=O)CCNCc1cc(-c2cc3c(Nc4ccc(OCc5cccc(F)c5)c(Cl)c4)ncnc3s2)cs1", "%", 1.69),
    ("COc1ccc2ncn(-c3cc(O[C@H](C)c4ccccc4Cl)c(C(N)=O)s3)c2c1", "%", 2.92),
    ("COc1cc(Nc2ncc(-c3ccccc3)o2)cc(OC)c1OC", "%", -2.58),
    ("NC(=O)c1ccc(Oc2nccc(-c3c(-c4ccc(F)cc4)ncn3C3CCNCC3)n2)cc1", "%", 3.06),
]

(Q) Please give the measured inhibition for this compound: Fc1ccc(-c2ncn(C3CCNCC3)c2-c2ccnc(Oc3ccc4c(c3)OCO4)n2)cc1
(A) 3.09

(Q) # inhibition lookup, item CCS(=O)(=O)c1ccc(OC)c(Nc2ncc(-c3cccc(-c4ccccc4F)c3)o2)c1
(A) -1.45

(Q) So what does the record say about inhibition for CS(=O)(=O)CCNCc1ccc(-c2ccc3ncnc(Nc4ccc(OCc5ccccc5)c(Br)c4)c3c2)o1 ?
(A) 2.56

###

tested-on: Sphingosine kinase 1 (Homo sapiens)
assay-conditions: at 0.1 µM
recorded-endpoint: inhibition (%)
Reply with just the number (in %).

Some solved entries appear below for comparison.
# compound, inhibition, %
rows = [
    ("c1ccc(Oc2ccc(Nc3ncc(-c4ccccc4)o3)cc2)cc1", 0.41),
    ("Fc1ccc(-c2nc3n(c2-c2ccncc2)CCS3)cc1", -3.68),
    ("CN(c1ccc(NC(=O)Nc2c(Cl)cccc2Cl)cc1)c1ccnc(Nc2cccc(CS(C)(=O)=O)c2)n1", -0.6),
    ("CN(C)c1ccc2c(c1)/C(=C/Nc1ccc(S(N)(=O)=O)cc1)C(=O)N2", 3.41),
    ("Cc1ccc(C(=O)NC2CCC2)cc1-c1ccc(C(=O)NCC2CC2)cc1", 0.24),
]

(Q) # value lookup — system Sphingosine kinase 1 (Homo sapiens), readout inhibition, item O=C(Nc1n[nH]c2cc(-c3cc(F)ccc3F)ccc12)C1CC1
(A) 0.01

(Q) Please provide the recorded inhibition for CS(=O)(=O)CCNCc1cc(-c2cc3c(Nc4ccc(OCc5cccc(F)c5)c(Cl)c4)ncnc3s2)cs1 , tested on Sphingosine kinase 1 (Homo sapiens).
(A) 1.57

(Q) Item: COc1cc(Nc2ncc3c(C)nc(-c4cccc(C(F)(F)F)c4)n3n2)cc(OC)c1OC Test system: Sphingosine kinase 1 (Homo sapiens) Read-out: inhibition Value: ?
(A) 2.98

(Q) Item COc1ccc2ncn(-c3cc(O[C@H](C)c4ccccc4Cl)c(C(N)=O)s3)c2c1 with Sphingosine kinase 1 (Homo sapiens) - inhibition?
(A) 1.65

(Q) Which measured inhibition belongs to COc1cc(Nc2ncc3c(C)nc(-c4cccc(Oc5ccccc5)c4)n3n2)cc(OC)c1OC , tested on Sphingosine kinase 1 (Homo sapiens)?;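 further: mean percent inhibition of SPHK1 activity, measured within the GSK PKIS screening panel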
(A) -1.6

(Q) Sphingosine kinase 1 (Homo sapiens) / inhibition / Nc1nccc(-c2c(-c3ccc(F)cc3)ncn2C2CCC(O)CC2)n1 (stereo not given) : value?
(A) 0.34

###

tested-on: Serine/threonine-protein kinase 10 (Homo sapiens) (UniProt O94804)
Sequence (O94804 whole entry, looked up): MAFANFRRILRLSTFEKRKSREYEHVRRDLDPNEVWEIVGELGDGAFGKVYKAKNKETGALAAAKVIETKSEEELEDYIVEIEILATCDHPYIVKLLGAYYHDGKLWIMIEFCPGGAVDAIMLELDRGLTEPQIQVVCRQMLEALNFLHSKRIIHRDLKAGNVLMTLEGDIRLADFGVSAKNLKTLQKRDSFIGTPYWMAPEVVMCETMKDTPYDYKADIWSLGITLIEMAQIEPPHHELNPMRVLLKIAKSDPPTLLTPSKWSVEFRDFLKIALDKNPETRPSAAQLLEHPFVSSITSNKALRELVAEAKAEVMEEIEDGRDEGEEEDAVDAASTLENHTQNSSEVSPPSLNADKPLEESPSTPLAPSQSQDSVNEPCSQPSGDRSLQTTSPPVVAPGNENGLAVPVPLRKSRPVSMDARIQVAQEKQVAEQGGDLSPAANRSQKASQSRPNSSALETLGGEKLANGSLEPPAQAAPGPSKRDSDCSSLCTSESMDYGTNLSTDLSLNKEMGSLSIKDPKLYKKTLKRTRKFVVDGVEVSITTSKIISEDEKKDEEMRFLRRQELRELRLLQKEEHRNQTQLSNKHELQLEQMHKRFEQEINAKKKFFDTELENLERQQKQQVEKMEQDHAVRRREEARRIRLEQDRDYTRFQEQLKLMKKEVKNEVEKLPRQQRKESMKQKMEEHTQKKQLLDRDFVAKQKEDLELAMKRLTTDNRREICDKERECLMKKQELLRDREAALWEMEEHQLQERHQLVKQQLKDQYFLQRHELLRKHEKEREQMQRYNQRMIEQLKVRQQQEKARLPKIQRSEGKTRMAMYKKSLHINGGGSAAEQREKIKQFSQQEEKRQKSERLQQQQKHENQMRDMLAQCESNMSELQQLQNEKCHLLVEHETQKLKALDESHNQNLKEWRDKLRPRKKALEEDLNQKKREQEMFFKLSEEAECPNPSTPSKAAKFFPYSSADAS
assay-conditions: at 1 µM
recorded-endpoint: inhibition

Examples with their reported inhibition follow.
# compound, recorded-endpoint, measured
records = [
    ("Fc1ccc(-c2nc3n(c2-c2ccncc2)CCS3)cc1", "inhibition", "6.87%"),
    ("COc1cccc(/C=N/Nc2ncnc3c2cnn3-c2cccc(OC)c2)c1", "inhibition", "6.35%"),
    ("COc1ccc(C2=C(N3CCc4ccccc43)C(=O)NC2=O)cc1", "inhibition", "10.4%"),
    ("COc1ccc2cc(-c3c(-c4ccncc4)nc(-c4ccc(S(C)(=O)=O)cc4C)n3C)ccc2c1", "inhibition", "95.3%"),
    ("O=C1Nc2ccccc2/C1=C/Nc1ccc(-n2cncn2)cc1", "inhibition", "12.6%"),
    ("Cc1ccc(NC(=O)c2ccoc2)cc1-c1ccc(C(=O)NCC2CC2)cc1", "inhibition", "5.18%"),
    ("CNC(=O)c1cncc(/C=C/c2c(C)cccc2C)c1", "inhibition", "10.3%"),
    ("FC(F)(F)c1cccc(Nc2nccc(-c3cnn4nc(-c5ccccc5)ccc34)n2)c1", "inhibition", "5.68%"),
]

(Q) So what's the measured inhibition for this one? CS(=O)(=O)CCNCc1ccc(-c2ccc3ncnc(Nc4ccc(OCc5ccccc5)c(Br)c4)c3c2)o1
(A) 16.4%

(Q) Returns the measured inhibition for the input compound. Input: COc1ccc2cc(-c3c(-c4ccncc4)nc(-c4ccc([S+](C)[O-])cc4C)n3C)ccc2c1 (configuration not stated)
(A) 97.3%

(Q) # input compound: O=C(Nc1n[nH]c2cc(-c3ccccc3)ccc12)C1CC1 ; wanted: its inhibition
(A) 19.9%

(Q) I would be grateful if you could share the reported inhibition for COc1cc2ncn(-c3cc(OCc4ccccc4C(F)(F)F)c(C(C)=O)s3)c2cc1OC .
(A) 42.8%

(Q) Requested read-out: inhibition. Entry: CN(C)CCOc1ccc(-c2cc(-c3ccc4c(c3)CCC4=NO)c(-c3ccncc3)o2)cc1
(A) 62.6%

(Q) Record request: inhibition value, item C[C@@H](Oc1cc(-n2cnc3ccc(OC4CCN(C)CC4)cc32)sc1C(N)=O)c1ccccc1Cl
(A) 81.4%

(Q) inhibition for O=C(Nc1n[nH]c2nc(-c3ccco3)ccc12)C1CC1 ?
(A) 9.62%

(Q) # get_value(readout='inhibition', item= NC(=O)c1ccc(Oc2nccc(-c3c(-c4ccc(F)cc4)ncn3C3CCNCC3)n2)cc1 )
(A) 8.82%

(Q) Need inhibition, item NS(=O)(=O)c1ccc(Nc2cc(-c3ccc(O)c(F)c3)n[nH]2)cc1
(A) 16.4%

Data credit: ChEMBL document CHEMBL1961873
